Target: Dihydroorotate dehydrogenase (quinone), mitochondrial (Plasmodium falciparum (isolate 3D7)) (UniProt Q08210)
Sequence (Q08210 whole entry, looked up): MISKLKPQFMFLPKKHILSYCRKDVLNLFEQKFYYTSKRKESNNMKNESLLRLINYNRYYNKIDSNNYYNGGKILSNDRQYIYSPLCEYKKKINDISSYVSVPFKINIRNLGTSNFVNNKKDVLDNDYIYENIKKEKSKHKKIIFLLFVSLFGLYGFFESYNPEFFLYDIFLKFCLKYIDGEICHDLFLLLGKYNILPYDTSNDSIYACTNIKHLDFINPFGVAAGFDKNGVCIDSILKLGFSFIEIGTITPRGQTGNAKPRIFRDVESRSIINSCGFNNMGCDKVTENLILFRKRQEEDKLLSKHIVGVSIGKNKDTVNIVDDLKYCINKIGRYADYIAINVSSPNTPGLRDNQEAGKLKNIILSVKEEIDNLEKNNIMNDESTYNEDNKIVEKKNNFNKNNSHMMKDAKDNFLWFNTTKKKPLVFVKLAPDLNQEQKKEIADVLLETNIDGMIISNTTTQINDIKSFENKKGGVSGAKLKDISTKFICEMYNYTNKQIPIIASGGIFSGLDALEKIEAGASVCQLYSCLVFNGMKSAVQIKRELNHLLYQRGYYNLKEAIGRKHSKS
Assay: PfDHODH enzyme inhibitors, primary screen, biochemical, C-terminal His tag, absorbance 600 nm (AID 1175);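 also: recombinant parasite enzyme with a five histidine tag at its C terminus; test concentration not given here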
Details: DCIP absorbance 600 nm, higher = more signal, called active from +8 up or from −8 down
Activity calls are given as the source filed them.
property.name: composite z-score

{"compound": "CCOC(=O)C1=C[C@@H](C(C)(C)C)N(S(=O)(=O)c2ccc(C)cc2)[C@H]1c1ccc(F)cc1", "property.name": "composite z-score", "obs.value": "0.412 (inactive)"}
{"compound": "Cc1ccc(N2C(=O)c3ccccc3[C@@H](C(=O)NC3CC3)[C@@H]2c2ccc(CO)cc2)nc1", "property.name": "composite z-score", "obs.value": "-0.162 (inactive)"}
{"compound": "CO[C@H]1O[C@H](CO)[C@@H](OC(=O)Nc2ccccc2)[C@H](OC(=O)Nc2ccccc2)[C@@H]1OC(=O)Nc1ccccc1", "property.name": "composite z-score", "obs.value": "0.202 (inactive)"}
{"compound": "Cc1ccc(S[C@]2(C(=O)NC3CC3)CC(=O)N(Cc3ccccc3)[C@@H]2c2ccc(CO)cc2I)cc1", "property.name": "composite z-score", "obs.value": "-1.47 (inactive)"}
{"compound": "Cc1ccc(S[C@]2(C(=O)NCCCN(C)C)CC(=O)N(Cc3ccccc3C(F)(F)F)[C@@H]2c2ccc(CO)cc2)cc1", "property.name": "composite z-score", "obs.value": "-0.0819 (inactive)"}
{"compound": "C=C(CCCC)C(=O)CC[C@@H](OC(=O)c1ccccc1-c1ccccc1C(=O)O)c1ccc(OCCO)cc1", "property.name": "composite z-score", "obs.value": "-1.25 (inactive)"}
{"compound": "COC(=O)[C@@]1(Cc2ccc(OC)cc2)[C@H]2c3cc(C(=O)N(C)C)n(Cc4ccccn4)c3C[C@H]2CN1C(=O)c1ccccc1", "property.name": "composite z-score", "obs.value": "1.02 (inactive)"}
{"compound": "CC(C)C[C@@H]1NC(=O)[C@H](C(C)C)NC(=O)[C@@]23C(=O)N[C@@H](Cc4ccccc4)C2[C@H](C)[C@@]2(C)O[C@H]2C3/C=C/CC/C=C/CNC1=O (some centres not stated)", "property.name": "composite z-score", "obs.value": "-0.313 (inactive)"}
{"compound": "CN1C(=O)C2C=CC(C(O)C#Cc3ccccc3)N(N3CCCCC3)C2C1=O (configuration not stated)", "property.name": "composite z-score", "obs.value": "-1.07 (inactive)"}
{"compound": "COC(=O)[C@@]1(Cc2ccc(F)cc2)[C@H]2c3cc(C(=O)N4CCCC4)n(CCCNc4ncc(C(F)(F)F)cc4Cl)c3C[C@H]2CN1C(=O)c1ccccc1", "property.name": "composite z-score", "obs.value": "0.308 (inactive)"}
{"compound": "C=CCC(OC(C)=O)[C@@H]1[C@@H](N(Cc2cccc3ccccc23)C(=O)c2ccc(-c3ccccc3)cc2)c2cc(OCCCO)ccc2N1C(=O)c1ccc2ccccc2c1 (some centres not stated)", "property.name": "composite z-score", "obs.value": "-0.149 (inactive)"}
{"compound": "N#Cc1ccc(NN2C(C(O)C(c3ccccc3)c3ccccc3)C=CC3C(=O)N(c4ccccc4)C(=O)C32)cc1 (configuration not stated)", "property.name": "composite z-score", "obs.value": "0.0998 (inactive)"}
{"compound": "O=C1O[C@@H](c2ccccc2)[C@@H](c2ccccc2)N2[C@@H](c3ccccc3OCCO)[C@]3(C(=O)Nc4ccc(C#CC5=CCCCC5)cc43)[C@@H](C(=O)N3CCCCCCC3)[C@H]12", "property.name": "composite z-score", "obs.value": "-0.35 (inactive)"}
{"compound": "COc1cc2c(cc1OC)CN(C(=O)[C@@H]1[C@H]3C(=O)O[C@H](c4ccccc4)[C@H](c4ccccc4)N3[C@H](c3ccccc3OCCO)[C@@]13C(=O)Nc1ccc(C#CCCO)cc13)CC2", "property.name": "composite z-score", "obs.value": "0.379 (inactive)"}
{"compound": "CCOC(=O)C[C@H]1[C@H](OC(=O)c2ccc(C(=O)c3ccccc3)cc2)[C@@H](NC(=O)CC(C)C)c2cc(OCCCO)ccc2N1C(=O)c1ccc2ccccc2n1", "property.name": "composite z-score", "obs.value": "-0.888 (inactive)"}
{"compound": "C=C[C@H](OC)[C@@H](OC(=O)Nc1ccc(OC)cc1)c1ccc(O)c(F)c1", "property.name": "composite z-score", "obs.value": "-1.89 (inactive)"}
{"compound": "COC(=O)C(CC#Cc1ccc2c(c1)[C@]1(C(=O)N2)[C@H](C(=O)Nc2nc3ccccc3s2)[C@H]2C(=O)O[C@H](c3ccccc3)[C@H](c3ccccc3)N2[C@@H]1c1ccccc1OCCO)C(=O)OC", "property.name": "composite z-score", "obs.value": "-4.92 (inactive)"}
{"compound": "CCS[C@H]1[C@@H](C(=O)O)[C@H](c2ccc(C)cc2)N(S(=O)(=O)c2ccc(C)cc2)[C@@H]1CC", "property.name": "composite z-score", "obs.value": "-1.03 (inactive)"}
{"compound": "Oc1ccc2cc[n+](Cc3sc4ccccc4c3Cl)cc2c1", "property.name": "composite z-score", "obs.value": "-0.427 (inactive)"}
{"compound": "COc1cccc(-c2cccc(=O)o2)c1", "property.name": "composite z-score", "obs.value": "-1.02 (inactive)"}
{"compound": "NC(=O)NCC#Cc1ccc2c(c1)[C@]1(C(=O)N2)[C@H](c2ccc(O)cc2)N2[C@H](c3ccccc3)[C@H](c3ccccc3)OC(=O)[C@H]2[C@@H]1C(=O)O", "property.name": "composite z-score", "obs.value": "-0.268 (inactive)"}
{"compound": "CC(C)NC(=O)[C@@]1(c2ccc([N+](=O)[O-])cc2)CC(=O)N(C2CCCCC2)[C@@H]1c1ccc(CO)cc1I", "property.name": "composite z-score", "obs.value": "0.968 (inactive)"}
